Tested on: Human papillomavirus type 1a E7 protein (residues 1-88)
Assay Method Text: HPV1a E7 small-molecule binders, primary screen, biochemical, small-molecule microarray, residues 1-88, 635 nm (AID 1129)
Test Conditions: small-molecule microarray binding, fluorescence 635 nm; higher = more signal
Listing of recorded composite z-score by entry.
Experimental Readout: composite z-score

>>> number("CC(c1ccccc1)C(O)C1C=CC2C(=O)N(c3ccccc3)C(=O)C2N1Nc1ccc([N+](=O)[O-])cc1 (stereo not given)")
1.25
>>> number("COC1OC[C@]2(C)[C@H]3C4=C(CN2C(=O)OC(C)(C)C)[C@H](C)C(CO)C(CO)C4CC[C@@H]13 (stereo not given in full)")
1.24
>>> number("C=C(COC)/C(=C/C[C@H](OC(=O)c1ccncc1)c1ccccc1OCCO)c1cnc2ccccc2c1")
1.23
>>> number("CCOC(=O)C1CCCCN1 (stereo not given)")
0.859
>>> number("CCCCCCCCCCC(O)C1C=CC2C(=O)N(C)C(=O)C2N1NC(=O)OC(C)(C)C (stereo not given)")
0.995
>>> number("C=C(/C(=C/C[C@@H](OC(C)=O)c1cccc(OCCO)c1)c1cc(C(=O)OC)ccc1OC)C(C)C")
0.238
>>> number("C=CCC(OC(C)=O)[C@@H]1[C@@H](N(Cc2cccc3ccccc23)C(=O)Cc2ccc(F)cc2)c2cc(OCCCO)ccc2N1C(=O)c1ccc2ccccc2n1 (stereo not given in full)")
-0.0554
>>> number("CC(C)N1CC=CC23O[C@@H]4C=CCOC(=O)[C@@H]4[C@H]2C(=O)N(CCCO)[C@@H]3C1=O (stereo not given in full)")
0.672
>>> number("[N-]=[N+]=NCc1ccccc1C[C@@]1(C(=O)N2CCCCC2)N=C(c2ccc(OCCCO)cc2)O[C@@H]1c1ccccc1")
1.12
>>> number("COCCOC(=O)N1C(=O)[C@@]2(c3cc(C#CC4=CCCCC4)ccc31)[C@H](c1ccc(OCCO)cc1)N1[C@H](c3ccccc3)[C@H](c3ccccc3)OC(=O)[C@H]1[C@@H]2C(=O)N1CCN(c2ncccn2)CC1")
1.15
>>> number("COCCOC(=O)N1C(=O)[C@@]2(c3cc(C#CCCO)ccc31)[C@H](C(=O)Nc1nc3ccccc3s1)[C@H]1C(=O)O[C@H](c3ccccc3)[C@H](c3ccccc3)N1[C@@H]2c1ccccc1OCCO")
1.2
>>> number("COC(=O)[C@@]1(Cc2ccc(OC)cc2)[C@@H]2C(=CC(=O)[C@H]2CC(=O)C(=O)N(C)C)CN1C(=O)c1ccccc1")
1.23
>>> number("CN(C)CCCNC(=O)[C@@H]1c2ccccc2C(=O)N(Cc2ccccc2Cl)[C@H]1c1ccc(CO)cc1")
0.51
>>> number("CCCC[C@@H]1C[C@H]1[C@@H](NC(=O)c1cccs1)c1ccc(C(F)(F)F)cc1")
-0.654
>>> number("C=C[C@@H](COC(C)=O)N(C(=O)OC(C)(C)C)S(=O)(=O)c1ccc(Br)cc1")
0.966

Measured values drawn from PubChem BioAssay for this set.
